assay: water solubility of anastrozole; format: physicochemical; settings: read-out: aqueous solubility
Property Name: solubility (µg/mL)
Output spec: scalar in µg/mL, unitless text.

Incoming: Recall and state the measured solubility for CC(C)(C#N)c1cc(Cn2cncn2)cc(C(C)(C)C#N)c1 .
Outgoing: 530

* * *

test: water solubility of anastrozole; assay type: physicochemical; conditions: at 25° C., read-out: water solubility
Property Name: solubility (µg/mL)
Output spec: scalar in µg/mL, unitless text.

Incoming: Recall and state the measured solubility for CC(C)(C#N)c1cc(Cn2cncn2)cc(C(C)(C)C#N)c1 .
Outgoing: 530

Origin of values: patent US20080248077A1
